TARGET DESC: UniProt Q92731
Sequence (Q92731 whole entry): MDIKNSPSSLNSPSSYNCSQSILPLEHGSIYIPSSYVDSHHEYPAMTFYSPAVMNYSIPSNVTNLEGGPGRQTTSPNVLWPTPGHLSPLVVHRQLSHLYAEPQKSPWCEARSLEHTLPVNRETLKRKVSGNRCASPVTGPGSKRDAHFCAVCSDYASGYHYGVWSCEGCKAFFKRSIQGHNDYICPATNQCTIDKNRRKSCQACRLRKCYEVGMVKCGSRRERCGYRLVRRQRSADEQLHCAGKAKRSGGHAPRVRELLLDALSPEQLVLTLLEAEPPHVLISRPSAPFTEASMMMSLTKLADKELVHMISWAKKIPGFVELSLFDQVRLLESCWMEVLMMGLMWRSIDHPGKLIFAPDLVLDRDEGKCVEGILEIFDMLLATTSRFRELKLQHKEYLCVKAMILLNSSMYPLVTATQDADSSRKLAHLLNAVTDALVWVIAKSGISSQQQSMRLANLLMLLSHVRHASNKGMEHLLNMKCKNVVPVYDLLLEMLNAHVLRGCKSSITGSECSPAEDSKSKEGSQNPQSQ
TEST METHOD NOTES: ER binding competitor assay (fluorescent estrogen ES2), ERβ
Set-up: purchased Invitrogen
MEASUREMENT CONTEXT: RBA = (IC50 estradiol/IC50 compound) × 100; ES2 1 nM; estradiol set equal to 100
ENDPOINT: RBAβ
Answer with a bare number; do not write a unit.

# MOLECULE, TARGET DESC, RBAβ
measured = [
    ("COc1ccc(-c2coc3c(OC)c(O)ccc3c2=O)cc1", "UniProt Q92731", 0.15),
    ("O=c1c(-c2ccc(OC3O[C@H](CO)[C@@H](O)[C@H](O)[C@H]3O)cc2)coc2c(C3O[C@H](CO)[C@@H](O)[C@H](O)[C@H]3O)c(O)cc(O)c12 (stereo partly drawn)", "UniProt Q92731", 0.05),
]

Attention now shifts to the item below.
[in] Provide RBAβ value for the following molecule: COc1cc(O)cc2occ(-c3ccc(O)c(O)c3)c(=O)c12
[out] 0.15
